Test system: Blumeria graminis f. sp. tritici
Test: Test I: wheat powdery mildew, preventive spray on wheat seedlings, visual disease rating
Conditions: wheat powdery mildew; 100 = 100% disease control, 0 = no disease control relative to the controls

| COMPOUND | Test I rating (disease control), % |
| --- | --- |
| Cc1nn(C)c(Nc2c(Cl)cc(Br)cc2Cl)c1-c1ccc(F)cc1Cl [compound 164] | 99 |
| Cc1nn(C)c(Oc2c(F)cc(C#N)cc2F)c1-c1ccc(F)cc1F [compound 45] | 99 |
| COc1cc(F)c(-c2c(C)nn(C)c2Oc2ccc(Cl)cc2Cl)c(F)c1 [compound 10] | 99 |
| Cc1nn(C)c(Nc2c(Cl)cc(F)cc2Cl)c1-c1ccc(F)cc1Br [compound 98] | 96 |
| Cc1nn(C)c(Nc2c(F)cc(F)cc2F)c1-c1ccc(Cl)cc1Cl [compound 18] | 97 |

###

compounds and their reported Test K3 Obsd
System: Blumeria graminis f. sp. tritici
Assay: Test K (K1-K5): wheat powdery mildew, Compound 81 alone and in mixtures, observed and Colby expected control
Assay type: in vivo
Settings: component (b) 10 ppm alone
PROPERTY_LABEL: Test K3 Obsd (%)

| COMPOUND | DATA_VALUE |
| --- | --- |
| Cn1cc(C(=O)Nc2ccc(F)cc2-c2ccc(Cl)c(Cl)c2)c(C(F)F)n1 | 99 |
| CC(C)CC(C)c1sccc1NC(=O)c1cn(C)nc1C(F)(F)F (centres unmarked) | 100 |
| CC(C)C1C2CCC1c1c(NC(=O)c3cn(C)nc3C(F)F)cccc12 (centres unmarked) | 99 |
| CC1CCN(c2c(-c3c(F)cc(F)cc3F)c(Cl)nc3ncnn23)CC1 | 100 |
| CCCN(CC)CC1COC2(CCC(C(C)(C)C)CC2)O1 (centres unmarked) | 0 |

###

System: Botrytis cinerea
Test: Test A: tomato Botrytis, preventive spray on tomato seedlings, visual disease rating
Details: tomato Botrytis; 100 = 100% disease control, 0 = no disease control relative to the controls
Measured Test A rating (disease control), listed per entry for reference.

| COMPOUND_STRING | SUBJECT_OF_TEST | Test A rating (disease control) / % |
| --- | --- | --- |
| Cc1nn(C)c(Oc2ccc(C#N)cc2Cl)c1-c1ccc(F)cc1Br | Botrytis cinerea | 98 |
| COc1cc(F)c(-c2c(C)nn(C)c2Oc2c(F)cc(Cl)cc2F)c(F)c1 | Botrytis cinerea | 98 |
| COc1ccc(Nc2c(-c3c(F)cccc3F)c(C)nn2C)c(Cl)c1 | Botrytis cinerea | 99 |
| Cc1nn(C)c(Nc2ccc(Cl)cc2Cl)c1-c1ccc(F)cc1F | Botrytis cinerea | 100 |
| Cc1nn(C)c(Nc2ccc(F)cc2F)c1-c1ccccc1Cl | Botrytis cinerea | 99 |
| COc1cc(F)c(-c2c(C)nn(C)c2Oc2c(F)cc(C#N)cc2F)c(F)c1 | Botrytis cinerea | 99 |
| Cc1nn(C)c(Nc2c(F)cccc2F)c1-c1c(F)cccc1F | Botrytis cinerea | 100 |
| COc1ccc(-c2c(C)nn(C)c2Oc2ccc(C#N)cc2Cl)c(Cl)c1 | Botrytis cinerea | 100 |
| Cc1nn(C)c(Nc2c(F)cc(F)cc2F)c1-c1ccccc1F | Botrytis cinerea | 97 |

###

| COMPOUND_STRING | melting point |
| --- | --- |
| Cc1nn(C)c(Nc2c(F)cccc2Br)c1-c1ccc(F)cc1F | 149 to 151 °C |
| Cc1nn(C)c(Nc2c(F)cccc2Br)c1-c1ccc(F)cc1Br | 154 to 156 °C |
| Cc1nn(C)c(Nc2c(F)cc(F)cc2Cl)c1-c1ccc(C#N)cc1F | 177 to 179 °C |
| Cc1nn(C)c(Nc2c(F)cccc2Br)c1-c1c(F)cccc1F | 127 to 129 °C |
| Cc1nn(C)c(Nc2c(F)cccc2Cl)c1-c1ccc(F)cc1Cl | 166 to 168 °C |
| Cc1nn(C)c(Nc2ccc(Cl)cc2F)c1-c1c(F)cc(C#N)cc1F | 93 to 95 °C |

###

Test system: Septoria nodorum
Assay: Test E: Septoria glume blotch, preventive spray on wheat seedlings, visual disease rating
Details: Septoria glume blotch on wheat, preventive spray; 100 = 100% disease control; rating without asterisk
In this section we review reported Test E rating (% disease control) values for a set of molecules.
PROPERTY_LABEL: Test E rating (% disease control) (%)

| COMPOUND_STRING | PROPERTY_LABEL | DATA_VALUE |
| --- | --- | --- |
| COc1ccc(-c2c(C)nn(C)c2Nc2c(F)cc(Cl)cc2Cl)c(F)c1 | Test E rating (% disease control) | 92 |
| COc1ccc(-c2c(C)nn(C)c2Nc2c(F)cc(F)cc2I)c(Cl)c1 | Test E rating (% disease control) | 100 |
| CCOc1ccc(-c2c(C)nn(C)c2Nc2c(Cl)cc(F)cc2Cl)c(F)c1 | Test E rating (% disease control) | 0 |
| CCOc1cc(F)c(-c2c(C)nn(C)c2Nc2c(F)cc(Cl)cc2Cl)c(F)c1 | Test E rating (% disease control) | 60 |
| COc1ccc(-c2c(C)nn(C)c2Nc2c(F)cc(Cl)cc2Cl)c(Cl)c1 | Test E rating (% disease control) | 99 |
| Cc1nn(C)c(Nc2c(Cl)cc(F)cc2Cl)c1-c1ccc(Cl)cc1F | Test E rating (% disease control) | 0 |
| CCOc1ccc(-c2c(C)nn(C)c2Nc2c(F)cc(Cl)cc2F)c(Cl)c1 | Test E rating (% disease control) | 86 |
| COc1ccc(-c2c(C)nn(C)c2Nc2c(Cl)cc(F)cc2Cl)c(Cl)c1 | Test E rating (% disease control) | 0 |
| Cc1nn(C)c(Nc2ccc(Br)cc2Br)c1-c1ccc(F)cc1F | Test E rating (% disease control) | 60 |
| CCOc1cc(F)c(-c2c(C)nn(C)c2Nc2c(F)cc(Cl)cc2F)c(F)c1 | Test E rating (% disease control) | 69 |
| CCOc1ccc(-c2c(C)nn(C)c2Nc2c(F)cc(F)cc2Cl)c(F)c1 | Test E rating (% disease control) | 92 |
| Cc1nn(C)c(Nc2c(Cl)cc(Cl)cc2I)c1-c1ccc(F)cc1Cl | Test E rating (% disease control) | 0 |
| CCOc1ccc(-c2c(C)nn(C)c2Nc2c(F)cc(Cl)cc2Cl)c(Cl)c1 | Test E rating (% disease control) | 0 |
| CCOc1ccc(-c2c(C)nn(C)c2Nc2c(F)cc(Cl)cc2Cl)c(F)c1 | Test E rating (% disease control) | 0 |
| CCOc1ccc(-c2c(C)nn(C)c2Nc2ccc(F)cc2F)c(Cl)c1 | Test E rating (% disease control) | 0 |
| Cc1nn(C)c(Nc2c(F)cccc2Cl)c1-c1ccc(F)cc1Cl | Test E rating (% disease control) | 99 |
| Cc1nn(C)c(Nc2c(F)cc(Cl)cc2F)c1-c1ccc(F)cc1I | Test E rating (% disease control) | 0 |
| Cc1nn(C)c(Nc2ccc(Br)cc2Br)c1-c1ccc(F)cc1Cl | Test E rating (% disease control) | 0 |

###

Test system: Puccinia recondita f. sp. tritici
Assay: Test H: wheat leaf rust, preventive spray on wheat seedlings, visual disease rating
Conditions: wheat leaf rust, sprayed the day before inoculation; 100 = 100% disease control, 0 = no disease control
Recorded Test H rating (disease control) by entry
PROPERTY_LABEL: Test H rating (disease control)

| COMPOUND_STRING | PROPERTY_LABEL | DATA_VALUE |
| --- | --- | --- |
| Cc1nn(C)c(Nc2ccc(C#N)cc2F)c1-c1c(F)cc(F)cc1F | Test H rating (disease control) | 99% |
| COc1ccc(Nc2c(-c3ccc(F)cc3F)c(C)nn2C)c(Cl)c1 | Test H rating (disease control) | 91% |
| COc1cc(F)c(-c2c(C)nn(C)c2Nc2c(F)cc(C#N)cc2F)c(F)c1 | Test H rating (disease control) | 68% |
| COc1cc(F)c(Nc2c(-c3c(F)cc(OC)cc3F)c(C)nn2C)c(F)c1 | Test H rating (disease control) | 96% |
| Cc1nn(C)c(Nc2c(F)cc(C#N)cc2F)c1-c1c(F)cccc1Cl | Test H rating (disease control) | 99% |
| Cc1nn(C)c(Nc2ccc(F)cc2F)c1-c1c(F)cccc1F | Test H rating (disease control) | 83% |
| COc1cc(F)c(-c2c(C)nn(C)c2Nc2ccc(C#N)cc2Cl)c(F)c1 | Test H rating (disease control) | 98% |
| Cc1nn(C)c(Nc2ccc(Br)cc2F)c1-c1ccc(F)cc1Br | Test H rating (disease control) | 96% |
| Cc1nn(C)c(Nc2ccc(F)cc2F)c1-c1ccccc1Cl | Test H rating (disease control) | 96% |
| Cc1nn(C)c(Oc2c(F)cc(C#N)cc2F)c1-c1ccc(F)cc1F | Test H rating (disease control) | 100% |
| COc1cc(F)c(Nc2c(-c3ccccc3F)c(C)nn2C)c(F)c1 | Test H rating (disease control) | 94% |
| COc1ccc(-c2c(C)nn(C)c2Oc2c(F)cc(C#N)cc2F)c(F)c1 | Test H rating (disease control) | 100% |
| Cc1nn(C)c(Nc2c(F)cc(Cl)cc2F)c1-c1ccc(Cl)cc1Cl | Test H rating (disease control) | 100% |
| COc1cc(F)c(-c2c(C)nn(C)c2Oc2c(F)cc(Br)cc2F)c(F)c1 | Test H rating (disease control) | 98% |
| Cc1nn(C)c(Nc2c(F)cc(F)cc2F)c1-c1c(F)cc(C#N)cc1F | Test H rating (disease control) | 100% |
| Cc1nn(C)c(Nc2c(Cl)cc(F)cc2Cl)c1-c1ccc(F)cc1Br | Test H rating (disease control) | 99% |
| COc1ccc(-c2c(C)nn(C)c2Nc2c(F)cc(F)cc2F)c(Cl)c1 | Test H rating (disease control) | 99% |
| Cc1nn(C)c(Nc2ccc(F)cc2Br)c1-c1ccc(F)cc1Br | Test H rating (disease control) | 100% |
| Cc1nn(C)c(Nc2c(F)cc(F)cc2F)c1-c1ccccc1F | Test H rating (disease control) | 95% |
| Cc1nn(C)c(Nc2ccc(F)cc2F)c1-c1ccccc1F | Test H rating (disease control) | 60% |
| Cc1nn(C)c(Nc2ccc(Br)cc2Cl)c1-c1ccc(F)cc1Cl | Test H rating (disease control) | 100% |
| COc1cc(F)c(Nc2c(-c3c(F)cccc3F)c(C)nn2C)c(F)c1 | Test H rating (disease control) | 97% |
| COc1ccc(-c2c(C)nn(C)c2Oc2ccc(C#N)cc2Cl)c(Br)c1 | Test H rating (disease control) | 97% |
| Cc1nn(C)c(Nc2ccc(F)cc2F)c1-c1c(Cl)cccc1Cl | Test H rating (disease control) | 98% |
| Cc1nn(C)c(Nc2ccc(F)cc2F)c1-c1c(F)cc(C#N)cc1F | Test H rating (disease control) | 99% |
| COc1cc(F)c(Nc2c(-c3c(F)cc(C#N)cc3F)c(C)nn2C)c(F)c1 | Test H rating (disease control) | 41% |
| Cc1nn(C)c(Nc2c(F)cc(F)cc2F)c1-c1c(F)cccc1F | Test H rating (disease control) | 99% |
| Cc1nn(C)c(Nc2c(F)cc(F)cc2Cl)c1-c1ccc(Cl)cc1Cl | Test H rating (disease control) | 99% |
| Cc1nn(C)c(Nc2ccc(Br)cc2F)c1-c1ccc(F)cc1F | Test H rating (disease control) | 98% |
| COc1ccc(-c2c(C)nn(C)c2Oc2ccc(C#N)cc2F)c(Br)c1 | Test H rating (disease control) | 99% |
| COc1ccc(Nc2c(-c3ccc(F)cc3Cl)c(C)nn2C)c(Cl)c1 | Test H rating (disease control) | 100% |
| Cc1nn(C)c(Oc2ccc(C#N)cc2F)c1-c1ccc(Cl)cc1F | Test H rating (disease control) | 91% |
| COc1ccc(Oc2c(-c3ccc(F)cc3Cl)c(C)nn2C)c(F)c1 | Test H rating (disease control) | 100% |
| Cc1nn(C)c(Nc2ccc(Cl)cc2Cl)c1-c1ccc(F)cc1F | Test H rating (disease control) | 97% |
| Cc1nn(C)c(Nc2ccc(Br)cc2F)c1-c1ccc(F)cc1Cl | Test H rating (disease control) | 99% |
| Cc1nn(C)c(Oc2c(F)cc(C#N)cc2F)c1-c1ccccc1Cl | Test H rating (disease control) | 99% |
| Cc1nn(C)c(Nc2c(Cl)cc(F)cc2Cl)c1-c1c(Cl)cccc1Cl | Test H rating (disease control) | 99% |
